Measured melting point, listed per entry.
Structures can show the parent of a compound that is named as a salt.

Example cases with answers are listed next.
CCOP(=O)(CCN1CCC(N(CCCN)S(=O)(=O)c2ccc(Nc3nccc(Nc4ccc(F)c(F)c4)n3)cc2)CC1)OCC    94 to 96 °C
Cc1cc(Nc2ccnc(Nc3ccc(S(=O)(=O)N(C)C4CCN(Cc5nccs5)CC4)cc3)n2)ccc1F [Example 131]    176 to 177 °C

# context switch: different molecule, same melting point
Field request: melting point | item: NCCN(C1CCN(CC(F)(F)F)CC1)S(=O)(=O)c1ccc(Nc2nccc(Nc3ccc(F)cc3)n2)cc1 (as salt: hydrochloride) [Example 100]
240 to 245 °C

====

outcome-measure: melting point

CN(C)CCN(C1CCN(C)CC1)S(=O)(=O)c1ccc(Nc2nccc(Nc3ccc(F)cc3)n2)cc1    135 to 137 °C
CCOP(=O)(CCN1CCC(N(CCN)S(=O)(=O)c2ccc(Nc3nccc(Nc4ccc(F)c(F)c4)n3)cc2)CC1)OCC    88 to 90 °C
CN(C1CCN(Cc2cccn2C)CC1)S(=O)(=O)c1ccc(Nc2nccc(Nc3ccc(F)c(F)c3)n2)cc1    149 to 152 °C

# context switch: different compound, same melting point
Field request: melting point | item: CN1CCC(N(CCO)S(=O)(=O)c2ccc(Nc3nccc(Nc4ccc(F)cc4)n3)cc2)CC1
125 to 135 °C

The reported measurements were obtained from patent US20080269170A1.
